- Assayed System: T1, ZFP SBS#1080 (synthetic)
- T1 chain: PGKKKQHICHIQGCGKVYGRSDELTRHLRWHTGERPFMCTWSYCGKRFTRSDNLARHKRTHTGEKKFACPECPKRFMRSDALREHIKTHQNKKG
- Assay Name: EMSA
- Protocol Conditions: tags: MBP fusion
Reported Property: Kd (nM)
Your answer is read as nM, so omit the unit and give the number.

### Prompt Bench note: what Kd did CTGGAGGCG (dsDNA) DNA 1: CTGGAGGCG DNA 2: CGCCTCCAG show?
### Response 1.37
